- Read-out: Transforming growth factor beta 1 (TGFb1), TGFB1 (gene 7040)
- assayInfo: BSK_KF3CT_TGFb1: BioMAP Diversity Plus: KF3CT Assay for Transforming growth factor beta 1 (TGFb1) Biomarker Activity (AID 2283072)
- particulars: primary human keratinocytes with fibroblasts; actives raise or lower the signal
The source made the active and inactive calls. How the source made its calls: active means hit-call score of the fitted dose curve at least 0.9, where 1 is the maximum; inactive means score below 0.9.
Classes used: true for active, false for inactive

molecule	groupLabel
Clc1ccc(C(c2ccc(Cl)cc2)C(Cl)Cl)cc1	true
CCCCOC(=O)c1ccccc1C(=O)OCc1ccccc1	false
CNC(=O)Oc1cccc2c1OC(C)(C)C2	false
O=C(Oc1ccc(Br)cc1)N1CCN2CCC1CC2	false
CN(C)C(=O)Nc1ccc(Cl)cc1	false
c1ccc(NNc2ccccc2)cc1	false
Cc1cccc(N)c1N	false
COC(=O)c1ccccc1N	false
Clc1ccc(C(c2ccc(Cl)cc2)C(Cl)(Cl)Cl)cc1	true
CC(C)(C)C(O)(CCc1ccc(Cl)cc1)Cn1cncn1 (stereo unspecified)	false
COP(=S)(OC)SCN1C(=O)c2ccccc2C1=O	false
c1ccc(N=Nc2ccccc2)cc1	false
O=C(N[C@H](c1ccccc1)[C@@H]1CN2CCC1CC2)c1c(Cl)ccc(C(F)(F)F)c1Cl	true
ClC1=C(Cl)[C@]2(Cl)[C@H]3[C@H]([C@@H]4C=C[C@H]3C4)[C@@]1(Cl)C2(Cl)Cl	true
CCCCCOC(=O)c1ccccc1C(=O)OCCCCC	false
Brc1ccc(Oc2ccccc2)cc1	false
c1ccc(C2CO2)cc1 (stereo unspecified)	false
Oc1ccc2ccc3cccc4ccc1c2c34	true
CCN(CC)CCO	false
c1ccc2c(c1)oc1ccccc12	false
c1ccc2c(c1)-c1cccc3cccc-2c13	false

====

- assayInfo: CCTE_Mundy_HCI_Cortical_Synap_Neur_Matur_NeuronCount: CCTE's Synaptogenesis and Neurite Maturation Assay in rat cortical cells for Neuron Count, Mundy Lab (AID 2284242)
Inconclusive results are not listed. Activity calls are given as the source filed them. How the source made its calls: active means hit-call score of the fitted dose curve at least 0.9, where 1 is the maximum; inconclusive means response in the unintended direction; inactive means score below 0.9.
Classes used: active, inactive

compound	groupLabel
OCCOCCO	inactive
CCC[CH2][Sn]([Cl])([CH2]CCC)[CH2]CCC	active
CCCCOC(=O)c1ccccc1C(=O)OCc1ccccc1	active
ClC1=C(Cl)C2(Cl)C3C(Cl)C=CC3C1(Cl)C2(Cl)Cl (configuration not stated)	active
Nc1cc(Cl)cc(C(=O)O)c1Cl	inactive
CC(C)(C)C(O)(CCc1ccc(Cl)cc1)Cn1cncn1 (configuration not stated)	inactive
COP(=S)(OC)SCN1C(=O)c2ccccc2C1=O	inactive

====

- assayInfo: ATG_EGR_CIS: Attagene CIS-FACTORIAL HepG2 Assay for human Early Growth Response 1 (EGR1) (AID 2282938)
- particulars: HepG2 Attagene CIS-FACTORIAL EGR reporter mRNA; actives raise or lower the signal
Active and inactive are the calls of the source. The calls were made as follows: active = hit-call score of the fitted dose curve at least 0.9, where 1 is the maximum; inactive = score below 0.9.
Classes used: 1 = active, -1 = inactive

molecule	groupLabel
CC(C)(C)C(O)(CCc1ccc(Cl)cc1)Cn1cncn1 (stereo not given)	-1
N#CC(Br)(Br)C(N)=O	-1
O=[N+]([O-])c1ccc(Oc2ccc(Cl)cc2Cl)cc1	1
CC(C)(OOC(C)(C)c1ccccc1)c1ccccc1	1
CC(C)COC(=O)c1ccccc1C(=O)OCC(C)C	1
O=C1CCCO1	-1
O=[N+]([O-])C(Br)(CO)CO	1
Nc1ccc([N+](=O)[O-])cc1	-1
O=C(Oc1ccc(Br)cc1)N1CCN2CCC1CC2	-1
O=Cc1ccco1	-1
CCC(C)c1ccc(O)cc1 (stereo not given)	-1
Cn1cc(-c2ccccc2)c(=O)c(-c2cccc(C(F)(F)F)c2)c1	-1
N#CC(Br)Br	-1
CC(C)(C)OOC(=O)c1ccccc1	-1
c1ccc2c(c1)-c1cccc3cccc-2c13	-1
O=C(N[C@H](c1ccccc1)[C@@H]1CN2CCC1CC2)c1c(Cl)ccc(C(F)(F)F)c1Cl	-1
Oc1ccc2ccc3cccc4ccc1c2c34	-1
OCCCBr	-1
CO[C@@H]1[C@H](OC(=O)NC(=O)CCl)CC[C@]2(CO2)[C@H]1[C@@]1(C)O[C@@H]1CC=C(C)C	-1
CCCSC(=O)N(CCC)CCC	-1
